ASSAY_OVERVIEW: Half life in human liver microsomes
Format: ADME, Microsome
PARAMETER_MEASURED: half-life (h)

CCOc1ccccc1C(=O)NCC1(N2CCN(C)CC2)CCCCC1    0.367
CCOc1ccccc1C(=O)NCC1(N2CCNCC2)CCCCC1    3.92

----------
TEST_SYSTEM: Potassium/sodium hyperpolarization-activated cyclic nucleotide-gated channel 2 (Homo sapiens)
Sequence (Q9UL51 whole entry): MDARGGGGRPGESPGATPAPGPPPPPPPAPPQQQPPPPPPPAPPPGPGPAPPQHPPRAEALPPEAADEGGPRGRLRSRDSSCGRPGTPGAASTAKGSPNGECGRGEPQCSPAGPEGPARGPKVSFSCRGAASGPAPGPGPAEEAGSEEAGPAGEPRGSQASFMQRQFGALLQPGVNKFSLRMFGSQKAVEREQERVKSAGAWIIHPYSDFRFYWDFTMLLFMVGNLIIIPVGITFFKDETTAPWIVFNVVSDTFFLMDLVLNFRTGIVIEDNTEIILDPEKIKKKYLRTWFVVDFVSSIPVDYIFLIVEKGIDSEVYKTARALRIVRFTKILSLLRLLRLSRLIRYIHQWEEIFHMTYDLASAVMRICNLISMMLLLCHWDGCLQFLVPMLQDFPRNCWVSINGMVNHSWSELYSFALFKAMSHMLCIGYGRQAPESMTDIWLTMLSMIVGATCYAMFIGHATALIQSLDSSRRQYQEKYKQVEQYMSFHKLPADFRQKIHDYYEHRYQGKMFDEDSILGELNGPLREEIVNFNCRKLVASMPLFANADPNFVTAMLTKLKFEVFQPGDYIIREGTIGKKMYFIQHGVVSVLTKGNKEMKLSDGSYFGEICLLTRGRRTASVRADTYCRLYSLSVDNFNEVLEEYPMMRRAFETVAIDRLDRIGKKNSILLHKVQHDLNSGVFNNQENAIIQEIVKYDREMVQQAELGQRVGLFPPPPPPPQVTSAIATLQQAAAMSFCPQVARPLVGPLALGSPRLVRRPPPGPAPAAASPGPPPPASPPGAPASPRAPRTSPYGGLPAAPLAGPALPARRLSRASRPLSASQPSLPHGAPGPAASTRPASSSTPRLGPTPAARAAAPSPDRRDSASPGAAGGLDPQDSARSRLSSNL
ASSAY_OVERVIEW: Inhibition of human HCN2 heterologously expressed in HEK-293 cells after 30 mins by VIPR assay
PARAMETER_MEASURED: IC50 (µM)

CCOc1ccccc1C(=O)NCC1(N2CCNCC2)CCCCC1    5.01
